Examples of molecules with documented Kb follow.
Target: human prostanoid EP1 receptor (Homo sapiens)
Construct: expressed in transfected cells
Sequence (P34995 whole entry): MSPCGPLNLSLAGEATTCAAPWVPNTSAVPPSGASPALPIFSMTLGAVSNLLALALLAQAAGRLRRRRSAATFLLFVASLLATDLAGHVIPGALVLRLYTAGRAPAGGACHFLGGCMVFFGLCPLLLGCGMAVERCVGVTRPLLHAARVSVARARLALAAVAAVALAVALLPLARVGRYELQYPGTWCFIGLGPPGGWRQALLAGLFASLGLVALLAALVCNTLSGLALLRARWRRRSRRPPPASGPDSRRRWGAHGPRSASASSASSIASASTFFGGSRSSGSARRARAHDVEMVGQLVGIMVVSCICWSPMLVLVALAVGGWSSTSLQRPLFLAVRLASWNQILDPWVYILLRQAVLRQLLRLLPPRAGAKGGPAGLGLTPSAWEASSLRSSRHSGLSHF
Test: FLIPR Ca2+ signaling antagonist assay, EP1 receptor stable cell line
Format: cell-based
Conditions: human recombinant EP1 in HEK-293 EBNA cells; standard agonist PGE2; NA = no antagonism or Kb>=10,000 nM
Counter-ions that a name gives are not always drawn.

# molecule, experimentalTarget, Kb
records = [
    ("CC(C)Cn1ncc2cc(OC(F)(F)F)cc(Cn3cnc4cc(C(=O)O)ccc43)c21", "human prostanoid EP1 receptor (Homo sapiens)", "9 µM"),
    ("CCCn1ncc2cc(Cl)cc(Cn3ncc4cc(C(=O)O)ccc43)c21", "human prostanoid EP1 receptor (Homo sapiens)", "> 10 µM"),
    ("CC(C)Cn1ncc2cc(Cl)cc(Cn3ncc4cc(C(=O)O)ccc43)c21", "human prostanoid EP1 receptor (Homo sapiens)", "0.73 µM"),
    ("CC(C)Cn1ncc2cc(Cl)cc(Cc3ncc4cc(C(=O)O)ccn34)c21", "human prostanoid EP1 receptor (Homo sapiens)", "> 10 µM"),
    ("Cc1nn(Cc2cc(Br)cc3cnn(CC(C)C)c23)c2ncc(C(=O)O)cc12 [Compound 54, HCl salt]", "human prostanoid EP1 receptor (Homo sapiens)", "> 10 µM"),
]

Input: Kb for CC(C)Cn1ncc2cc(Cl)cc(Cn3cnc4cc(C(=O)O)cnc43)c21 ?
Output: > 10 µM

Input: Lookup CC(C)Cn1ncc2cc(F)cc(Cn3ncc4cc(C(=O)O)ccc43)c21
Output: > 10 µM

Input: Lookup CC(C)Cn1ncc2cc(Cl)cc(Cn3cnc4cc(C(=O)O)ccc43)c21
Output: > 10 µM

* * *

Target: human prostanoid DP1 receptor (Homo sapiens)
Construct: expressed in transfected cells
Sequence (Q13258 whole entry): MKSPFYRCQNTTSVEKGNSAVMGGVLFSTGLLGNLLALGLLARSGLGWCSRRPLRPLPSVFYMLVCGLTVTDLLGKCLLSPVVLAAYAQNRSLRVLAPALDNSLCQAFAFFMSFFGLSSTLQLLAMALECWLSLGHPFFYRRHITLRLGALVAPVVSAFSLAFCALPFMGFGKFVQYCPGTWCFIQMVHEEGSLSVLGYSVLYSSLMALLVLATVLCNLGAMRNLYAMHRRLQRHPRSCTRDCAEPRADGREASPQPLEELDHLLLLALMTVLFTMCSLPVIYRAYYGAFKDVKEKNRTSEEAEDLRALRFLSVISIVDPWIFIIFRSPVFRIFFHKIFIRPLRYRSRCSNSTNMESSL
Test: FLIPR Ca2+ signaling antagonist assay, DP1 receptor stable cell line
Format: cell-based
Details: human recombinant DP1 + chimeric Gqs in HEK-293 EBNA cells; standard agonist BW 245C; NA = no antagonism or Kb>=10,000 nM
Structures can show the parent of a compound that is named as a salt.
Kb vs 4 µM: at or above is 1, below is -1.

# compound, assignedCategory
rows = [
    ("CNc1nn(Cc2cc(Cl)cc3cnn(CC(C)C)c23)c2ccc(C(=O)O)cc12", -1),
]

Input: Evaluate CC(C)Cn1ncc2cc(C(F)(F)F)cc(Cn3cnc4cc(C(=O)O)ccc43)c21 : Kb at minimum 4 µM?
Output: 1

Input: Lookup CC(C)Cn1ncc2cc(Cl)cc(Cn3ncc4cc(C(=O)O)cnc43)c21
Output: -1

Input: Lookup CC(C)Cn1ncc2cc(Cl)cc(Cc3ncc4cc(C(=O)O)ccn34)c21
Output: 1

Input: Lookup CC(C)n1ncc2cc(Br)cc(Cn3ncc4cc(C(=O)O)ccc43)c21
Output: 1

Input: Lookup Cc1nn(Cc2cc(Br)cc3cnn(CC(C)C)c23)c2ncc(C(=O)O)cc12 [Compound 54, HCl salt]
Output: -1

* * *

Molecular target: human prostanoid FP receptor (Homo sapiens, UniProt P43088)
Construct: expressed in transfected cells
Sequence (P43088 whole entry): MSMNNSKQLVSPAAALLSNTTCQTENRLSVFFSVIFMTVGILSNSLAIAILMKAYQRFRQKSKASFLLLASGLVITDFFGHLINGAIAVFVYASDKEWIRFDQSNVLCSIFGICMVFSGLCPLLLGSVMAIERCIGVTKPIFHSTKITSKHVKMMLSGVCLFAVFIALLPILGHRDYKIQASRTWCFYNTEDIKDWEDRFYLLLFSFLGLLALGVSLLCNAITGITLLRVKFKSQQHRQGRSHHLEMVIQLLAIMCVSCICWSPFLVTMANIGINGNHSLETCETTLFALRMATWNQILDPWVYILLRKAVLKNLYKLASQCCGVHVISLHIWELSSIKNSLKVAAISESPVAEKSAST
Experiment: FLIPR Ca2+ signaling antagonist assay, FP receptor stable cell line
Assay type: cell-based
Conditions: human recombinant FP in HEK-293 EBNA cells; standard agonist 17-phenyl-PGF2a; NA = no antagonism or Kb>=10,000 nM
quantity: Kb (nM)
Answer with a number only, understood to be in nM.

# molecule, quantity, measValue
records = [
    ("CNc1nn(Cc2cc(Cl)cc3cnn(CC(C)C)c23)c2ccc(C(=O)O)cc12 [Compound 70]", "Kb", 17),
]

Input: Tell me reported Kb for CC(C)Cn1ncc2cc(F)cc(Cn3ncc4cc(C(=O)O)ccc43)c21 [Compound 43] , tested with human prostanoid FP receptor (Homo sapiens, UniProt P43088).
Output: 700

Input: Lookup Cc1nn(Cc2cc(Br)cc3cnn(CC(C)C)c23)c2ccc(C(=O)O)cc12 [Compound 53]
Output: 70

* * *

Examples of molecules with documented Kb follow.
Molecular target: human prostanoid TP receptor (Homo sapiens)
Construct: expressed in transfected cells
Test: FLIPR Ca2+ signaling antagonist assay, TP receptor stable cell line
Format: cell-based
Conditions: human recombinant TP in HEK-293 EBNA cells; standard agonist U-46619; NA = no antagonism or Kb>=10,000 nM
Structures can show the parent of a compound that is named as a salt.
Answer with a number only, understood to be in nM.

# molecule, experimentalTarget, unitOfMeasure, Kb
data = [
    ("CC(C)Cn1ncc2cc(F)cc(Cn3ncc4cc(C(=O)O)ccc43)c21", "human prostanoid TP receptor (Homo sapiens)", "nM", 450),
    ("CC(C)Cn1ncc2cc(Cl)cc(Cn3cnc4cc(C(=O)O)ccc43)c21", "human prostanoid TP receptor (Homo sapiens)", "nM", 5000),
    ("CC(C)Cn1ncc2cc(Cl)cc(Cn3ncc4cc(C(=O)O)ccc43)c21", "human prostanoid TP receptor (Homo sapiens)", "nM", 40),
]

Input: Kb for CC(C)Cn1ncc2cc(Cl)cc(Cn3ncc4cc(C(=O)O)cnc43)c21 ?
Output: 170

Input: Lookup Cc1nn(Cc2cc(Br)cc3cnn(CC(C)C)c23)c2ncc(C(=O)O)cc12 [Compound 54, HCl salt]
Output: 1600

Input: Lookup CC(C)Cn1ncc2cc(Cl)cc(Cn3ccc4cc(C(=O)O)cnc43)c21
Output: 20

* * *

Examples of compounds with documented Kb follow.
Biological target: human prostanoid TP receptor (Homo sapiens)
Construct: expressed in transfected cells
Sequence (P21731 1-343): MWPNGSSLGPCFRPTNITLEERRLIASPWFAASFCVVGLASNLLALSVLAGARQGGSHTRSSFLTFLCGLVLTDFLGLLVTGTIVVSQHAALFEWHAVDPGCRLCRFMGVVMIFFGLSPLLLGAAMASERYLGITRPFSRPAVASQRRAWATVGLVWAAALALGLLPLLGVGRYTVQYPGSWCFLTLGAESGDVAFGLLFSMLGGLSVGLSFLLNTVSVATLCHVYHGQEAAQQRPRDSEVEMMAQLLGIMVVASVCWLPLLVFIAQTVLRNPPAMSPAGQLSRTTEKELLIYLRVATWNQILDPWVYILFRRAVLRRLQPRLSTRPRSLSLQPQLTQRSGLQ
Assay: FLIPR Ca2+ signaling antagonist assay, TP receptor stable cell line
Assay type: cell-based
Settings: human recombinant TP in HEK-293 EBNA cells; standard agonist U-46619; NA = no antagonism or Kb>=10,000 nM
Answer with a number only, understood to be in nM.

Here are 4 compounds together with their reported answers.
# structureNotation, quantity, unitOfMeasure, measValue
rows = [
    ("Cc1nn(Cc2cc(Br)cc3cnn(CC(C)C)c23)c2ccc(C(=O)O)cc12", "Kb", "nM", 1000),
    ("CCCn1ncc2cc(Cl)cc(Cn3ncc4cc(C(=O)O)ccc43)c21", "Kb", "nM", 740),
    ("CCC(CC)Cn1ncc2cc(Br)cc(Cn3ncc4cc(C(=O)O)ccc43)c21", "Kb", "nM", 700),
    ("CC(C)Cn1ncc2cc(Br)cc(Cn3ncc4cc(C(=O)O)ccc43)c21", "Kb", "nM", 160),
]

// below: Kb requested for another compound
Input: Kb for CC(C)Cn1ncc2cc(Cl)cc(Cn3cnc4cc(C(=O)O)cnc43)c21 ?
Output: 280

* * *

Target: human prostanoid FP receptor (Homo sapiens, UniProt P43088)
Construct: expressed in transfected cells
Assay: FLIPR Ca2+ signaling antagonist assay, FP receptor stable cell line
Type: cell-based
Details: human recombinant FP in HEK-293 EBNA cells; standard agonist 17-phenyl-PGF2a; NA = no antagonism or Kb>=10,000 nM
Kb vs 500 nM: at or above is fulfilled, below is not fulfilled.

# count of solved cases: 4
# structureNotation, assignedCategory
data = [
    ("CC(C)n1ncc2cc(Br)cc(Cn3ncc4cc(C(=O)O)ccc43)c21", "not fulfilled"),
    ("CC(C)Cn1ncc2cc(Cl)cc(Cn3nc(N)c4cc(C(=O)O)ccc43)c21", "not fulfilled"),
    ("CCC(CC)Cn1ncc2cc(Br)cc(Cn3ncc4cc(C(=O)O)ccc43)c21", "fulfilled"),
    ("CC(C)Cn1ncc2cc(C(F)(F)F)cc(Cn3cnc4cc(C(=O)O)ccc43)c21", "fulfilled"),
]

Input: Evaluate CC(C)Cn1ncc2cc(Cl)cc(Cn3cnc4cc(C(=O)O)cnc43)c21 : Kb at minimum 500 nM?
Output: fulfilled

Input: Lookup CC(C)Cn1ncc2cc(C(F)(F)F)cc(Cn3ncc4cc(C(=O)O)ccc43)c21
Output: not fulfilled

Input: Lookup CC(C)Cn1ncc2cc(Br)cc(Cn3ncc4cc(C(=O)O)ccc43)c21
Output: not fulfilled

Input: Lookup CC(C)Cn1ncc2cc(Cl)cc(Cn3cnc4cc(C(=O)O)ccc43)c21
Output: fulfilled

* * *

Target: human prostanoid EP1 receptor (Homo sapiens)
Construct: expressed in transfected cells
Assay: FLIPR Ca2+ signaling antagonist assay, EP1 receptor stable cell line
Format: cell-based
Conditions: human recombinant EP1 in HEK-293 EBNA cells; standard agonist PGE2; NA = no antagonism or Kb>=10,000 nM
Examples of compounds with documented Kb follow.
Put your answer as a value accompanied by its unit after it.

Here are 3 compounds together with their reported answers.
# structureNotation, Kb
data = [
    ("CC(C)Cn1ncc2cc(C(F)(F)F)cc(Cn3cnc4cc(C(=O)O)ccc43)c21", "4000 nM"),
    ("CNc1nn(Cc2cc(Cl)cc3cnn(CC(C)C)c23)c2ccc(C(=O)O)cc12", "2300 nM"),
    ("CCC(CC)Cn1ncc2cc(Br)cc(Cn3ncc4cc(C(=O)O)ccc43)c21", "500 nM"),
]

Input: Kb for CC(C)Cn1ncc2cc(Cl)cc(Cn3ccc4cc(C(=O)O)cnc43)c21 ?
Output: 600 nM

Input: Lookup CC(C)Cn1ncc2cc(C(F)(F)F)cc(Cn3ncc4cc(C(=O)O)ccc43)c21
Output: 1500 nM

Input: Lookup CC(C)n1ncc2cc(Br)cc(Cn3ncc4cc(C(=O)O)ccc43)c21
Output: 3000 nM

Input: Lookup Cc1nn(Cc2cc(Br)cc3cnn(CC(C)C)c23)c2ccc(C(=O)O)cc12
Output: 5700 nM

Input: Lookup CC(C)Cn1ncc2cc(Cl)cc(Cn3ncc4cc(C(=O)O)cnc43)c21
Output: 9800 nM
